Each entry below carries its recorded GRinf.
Tested on: Mycobacterium tuberculosis Erdman (autoluminescent)
Experiment: GRinf, maximum normalised growth rate inhibition (three-drug combination) (unitless (-1 to 1)); higher = less effect (negative = killing)
Conditions: in vitro model: dormancy (butyrate + nitrate, low O2); time point: constant (~7 days, model-specific)
Respond numerically, and do not add a unit to the figure.

[[record]]
compound = "CC(C)/N=c1\\cc2n(-c3ccc(Cl)cc3)c3ccccc3nc-2cc1Nc1ccc(Cl)cc1 [clofazimine] + CC(=O)NC[C@H]1CN(c2ccc(N3CCOCC3)c(F)c2)C(=O)O1 [linezolid] + NC(=O)c1cnccn1 [pyrazinamide]"
tgt = "Mycobacterium tuberculosis Erdman (autoluminescent)"
reported_measurement = -0.0605

[[record]]
compound = "CC(C)/N=c1\\cc2n(-c3ccc(Cl)cc3)c3ccccc3nc-2cc1Nc1ccc(Cl)cc1 [clofazimine] + CC[C@@H](CO)NCCN[C@@H](CC)CO [ethambutol] + NC(=O)c1cnccn1 [pyrazinamide]"
tgt = "Mycobacterium tuberculosis Erdman (autoluminescent)"
reported_measurement = 0.349


Problem: Could you tell me which GRinf is on file for CC(=O)NC[C@H]1CN(c2ccc(N3CCOCC3)c(F)c2)C(=O)O1 [linezolid] + COc1c(N2C[C@@H]3CCCN[C@@H]3C2)c(F)cc2c(=O)c(C(=O)O)cn(C3CC3)c12 [moxifloxacin] + NC(=O)c1cnccn1 [pyrazinamide] ?
Result: 0.269

Problem: Could you tell me which GRinf is on file for CC(C)/N=c1\cc2n(-c3ccc(Cl)cc3)c3ccccc3nc-2cc1Nc1ccc(Cl)cc1 [clofazimine] + CC[C@@H](CO)NCCN[C@@H](CC)CO [ethambutol] + COc1c(N2C[C@@H]3CCCN[C@@H]3C2)c(F)cc2c(=O)c(C(=O)O)cn(C3CC3)c12 [moxifloxacin] ?
Result: 0.451

Problem: Could you tell me which GRinf is on file for CC(C)/N=c1\cc2n(-c3ccc(Cl)cc3)c3ccccc3nc-2cc1Nc1ccc(Cl)cc1 [clofazimine] + COc1c(N2C[C@@H]3CCCN[C@@H]3C2)c(F)cc2c(=O)c(C(=O)O)cn(C3CC3)c12 [moxifloxacin] + CO[C@H]1/C=C/O[C@@]2(C)Oc3c(C)c(O)c4c(O)c(c(/C=N/N5CCN(C6CCCC6)CC5)c(O)c4c3C2=O)NC(=O)/C(C)=C\C=C\[C@H](C)[C@H](O)[C@@H](C)[C@@H](O)[C@@H](C)[C@H](OC(C)=O)[C@@H]1C [rifapentine] ?
Result: 0.189

Problem: Could you tell me which GRinf is on file for NNC(=O)c1ccncc1 [isoniazid] + COc1c(N2C[C@@H]3CCCN[C@@H]3C2)c(F)cc2c(=O)c(C(=O)O)cn(C3CC3)c12 [moxifloxacin] + CO[C@H]1/C=C/O[C@@]2(C)Oc3c(C)c(O)c4c(O)c(c(/C=N/N5CCN(C)CC5)c(O)c4c3C2=O)NC(=O)/C(C)=C\C=C\[C@H](C)[C@H](O)[C@@H](C)[C@@H](O)[C@@H](C)[C@H](OC(C)=O)[C@@H]1C [rifampicin] ?
Result: 0.232

Problem: Could you tell me which GRinf is on file for NNC(=O)c1ccncc1 [isoniazid] + CC(=O)NC[C@H]1CN(c2ccc(N3CCOCC3)c(F)c2)C(=O)O1 [linezolid] + COc1c(N2C[C@@H]3CCCN[C@@H]3C2)c(F)cc2c(=O)c(C(=O)O)cn(C3CC3)c12 [moxifloxacin] ?
Result: 0.271

Problem: Could you tell me which GRinf is on file for NNC(=O)c1ccncc1 [isoniazid] + CC(=O)NC[C@H]1CN(c2ccc(N3CCOCC3)c(F)c2)C(=O)O1 [linezolid] + CO[C@H]1/C=C/O[C@@]2(C)Oc3c(C)c(O)c4c(O)c(c(/C=N/N5CCN(C6CCCC6)CC5)c(O)c4c3C2=O)NC(=O)/C(C)=C\C=C\[C@H](C)[C@H](O)[C@@H](C)[C@@H](O)[C@@H](C)[C@H](OC(C)=O)[C@@H]1C [rifapentine] ?
Result: 0.222

Problem: Could you tell me which GRinf is on file for CC(C)/N=c1\cc2n(-c3ccc(Cl)cc3)c3ccccc3nc-2cc1Nc1ccc(Cl)cc1 [clofazimine] + CC(=O)NC[C@H]1CN(c2ccc(N3CCOCC3)c(F)c2)C(=O)O1 [linezolid] + COc1c(N2C[C@@H]3CCCN[C@@H]3C2)c(F)cc2c(=O)c(C(=O)O)cn(C3CC3)c12 [moxifloxacin] ?
Result: 0.201

Problem: Could you tell me which GRinf is on file for CC[C@@H](CO)NCCN[C@@H](CC)CO [ethambutol] + O=[N+]([O-])c1cn2c(n1)OC[C@@H](OCc1ccc(OC(F)(F)F)cc1)C2 [pretomanid] + NC(=O)c1cnccn1 [pyrazinamide] ?
Result: 0.4

Problem: Could you tell me which GRinf is on file for COc1nc2ccc(Br)cc2cc1[C@@H](c1ccccc1)[C@@](O)(CCN(C)C)c1cccc2ccccc12 [bedaquiline] + CC(C)/N=c1\cc2n(-c3ccc(Cl)cc3)c3ccccc3nc-2cc1Nc1ccc(Cl)cc1 [clofazimine] + O=[N+]([O-])c1cn2c(n1)OC[C@@H](OCc1ccc(OC(F)(F)F)cc1)C2 [pretomanid] ?
Result: 0.201

Problem: Could you tell me which GRinf is on file for COc1nc2ccc(Br)cc2cc1[C@@H](c1ccccc1)[C@@](O)(CCN(C)C)c1cccc2ccccc12 [bedaquiline] + CC[C@@H](CO)NCCN[C@@H](CC)CO [ethambutol] + CC(=O)NC[C@H]1CN(c2ccc(N3CCOCC3)c(F)c2)C(=O)O1 [linezolid] ?
Result: 0.486

Problem: Could you tell me which GRinf is on file for COc1nc2ccc(Br)cc2cc1[C@@H](c1ccccc1)[C@@](O)(CCN(C)C)c1cccc2ccccc12 [bedaquiline] + CC(C)/N=c1\cc2n(-c3ccc(Cl)cc3)c3ccccc3nc-2cc1Nc1ccc(Cl)cc1 [clofazimine] + CO[C@H]1/C=C/O[C@@]2(C)Oc3c(C)c(O)c4c(O)c(c(/C=N/N5CCN(C6CCCC6)CC5)c(O)c4c3C2=O)NC(=O)/C(C)=C\C=C\[C@H](C)[C@H](O)[C@@H](C)[C@@H](O)[C@@H](C)[C@H](OC(C)=O)[C@@H]1C [rifapentine] ?
Result: 0.218
